// provenance: paper PMC4121618

- Subject Of Test: human MOP receptors (Homo sapiens, UniProt P35372)
- Sequence (P35372 whole entry): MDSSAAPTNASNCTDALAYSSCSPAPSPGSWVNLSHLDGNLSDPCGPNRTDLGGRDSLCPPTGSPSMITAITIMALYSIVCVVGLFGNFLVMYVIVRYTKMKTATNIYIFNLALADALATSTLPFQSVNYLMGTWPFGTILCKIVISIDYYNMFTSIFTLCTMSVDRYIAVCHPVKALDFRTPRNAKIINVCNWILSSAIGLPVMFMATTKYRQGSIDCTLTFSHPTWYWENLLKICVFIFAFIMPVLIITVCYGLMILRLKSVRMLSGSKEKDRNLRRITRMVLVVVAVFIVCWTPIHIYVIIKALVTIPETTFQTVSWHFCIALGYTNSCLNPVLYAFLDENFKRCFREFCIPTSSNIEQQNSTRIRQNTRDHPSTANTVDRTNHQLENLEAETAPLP
- Measurement Notes: [35S]GTPγS functional assay in CHOhMOP cell membranes
- Format: biochemical
- Design: expressed in transfected cells; host or cells: CHO cells
- Test Context: read-out: [35S]GTPγS functional assay Emax
Experimental Readout: Emax (%)

compound="COc1ccc2c(c1OC)C13C=C(C#N)CCC1(O)C(C2)N(C)CC3 (centres unmarked)" experimental_readout=Emax measured_result=97
compound="COc1ccc2c3c1O[C@H]1C(=O)CC[C@@]4(OC)[C@@H](C2)N(C)CC[C@]314 [14-OMC, 14-O-methyloxycodone, reference compound]" experimental_readout=Emax measured_result=137
compound="COc1ccc2c(c1O)C13C=C(C#N)CCC1(OC)C(C2)N(C)CC3 (centres unmarked)" experimental_readout=Emax measured_result=85
compound="COc1ccc2c(c1OC)C13C=C(C#N)C=CC1(OC)C(C2)N(C)CC3 (centres unmarked)" experimental_readout=Emax measured_result=133
compound="COc1ccc2c(c1OC)C13C=C(C(N)=O)CCC1(OC)C(C2)N(C)CC3 (centres unmarked)" experimental_readout=Emax measured_result=107
compound="COc1ccc2c3c1O[C@H]1C(=O)CC[C@@]4(O)[C@@H](C2)N(C)CC[C@]314 [Oxycodone, oxycodone, reference compound]" experimental_readout=Emax measured_result=92
compound="COc1ccc2c(c1O)C13C=C(C#N)CCC1(O)C(C2)N(C)CC3 (centres unmarked)" experimental_readout=Emax measured_result=98
compound="COc1ccc2c3c1OC1C(C#N)=CCC4(OC)C(C2)N(C)CCC314 (centres unmarked)" experimental_readout=Emax measured_result=121
